Cited source: ChEMBL document CHEMBL2396549

System: Liver
ASSAY TEXT: Metabolic stability in mouse liver microsomes assessed as compound remaining
Type: ADME, Microsome
QUANTITY KIND: Stability (%)

See these solved cases before continuing.
>  <COMPOUND>
CC(C)[C@@H](NC(=O)[C@H]1CC[C@@H](O)C1)C(=O)N1CC[C@](O)(c2ccc(Cl)cc2)C(C)(C)C1 (mixture of isomers)

>  <Stability [%]>
65

$$$$
>  <COMPOUND>
CC(C)[C@@H](NC(=O)[C@@H]1CCC[C@@H]1N)C(=O)N1CC[C@](O)(c2ccc(Cl)cc2)C(C)(C)C1

>  <Stability [%]>
92

$$$$

I: CC(C)[C@@H](NC(=O)[C@@H]1CCC[C@@H]1O)C(=O)N1CC[C@](O)(c2ccc(Cl)cc2)C(C)(C)C1 (relative stereo)
II: CC(C)[C@@H](NC(=O)[C@@H]1CCC[C@H]1N)C(=O)N1CC[C@](O)(c2ccc(Cl)cc2)C(C)(C)C1
When I and II are compared, which has the higher number for Stability? Give the chosen item's label as your response. II
